# Method Notes: Drug level in mouse brain after 4 hrs at 5 mg/kg, iv
# Assay type: ADME, organism-based
# Set-up: dose 5 mg/kg, route intravenous
# Condition Set: read-out: Drug uptake
Assay Readout: concentration at 4 h (ng/g)

(I) CCC(C)[C@H](NC(=O)CCN)c1cc(C(F)(F)F)ccc1N1CCN(C(=O)CCc2ccc(Cl)cc2Cl)CC1 (some centres not stated)
(II) CC(C)C[C@H](NC(=O)CN)c1cc(C(F)(F)F)ccc1N1CCN(C(=O)CCc2ccc(Cl)cc2Cl)CC1
// compare measured concentration at 4 h between I and II ; output the lower one Kindly give the label for the entry you pick.
II
(II: 33 ng/g, I: 70 ng/g)

====

# Method Notes: Cmax in mouse at 10 mg/kg, po
# Assay type: ADME, organism-based
# Design: dose 10 mg/kg, route oral
# Condition Set: in vivo
Assay Readout: Cmax (ng/mL)

(a) CCC(C)[C@H](NC(=O)CCN)c1cc(C(F)(F)F)ccc1N1CCN(C(=O)CCc2ccc(Cl)cc2Cl)CC1 (some centres not stated)
(b) CC(C)C[C@H](NC(=O)CN)c1cc(C(F)(F)F)ccc1N1CCN(C(=O)CCc2ccc(Cl)cc2Cl)CC1
Exercise: compare a and b ; which one has the greater Cmax? Kindly give the label for the entry you pick.
a
(a: 1170 ng/mL, b: 115 ng/mL)

====

# System: Mus musculus
# Method Notes: AUC in mouse at 5 mg/kg, iv
# Type: ADME, organism-based, Plasma
# Design: dose 5 mg/kg, route intravenous
# Condition Set: in vivo
Assay Readout: AUC (ng·h/mL)

(P) CC(C)C[C@H](NC(=O)CN)c1cc(C(F)(F)F)ccc1N1CCN(C(=O)CCc2ccc(Cl)cc2Cl)CC1
(Q) CCC(C)[C@H](NC(=O)CCN)c1cc(C(F)(F)F)ccc1N1CCN(C(=O)CCc2ccc(Cl)cc2Cl)CC1 (some centres not stated)
Exercise: compare P and Q ; which one has the greater AUC? Kindly give the label for the entry you pick.
Q
(Q: 23100 ng·h/mL, P: 3070 ng·h/mL)

====

# Method Notes: Ratio of drug level in brain against plasma in mouse after 4 hrs at 5 mg/kg, iv
# Format: ADME, organism-based
# Parameters: dose 5 mg/kg, route intravenous
# Condition Set: read-out: BPR
Assay Readout: Kp at 4 h

(1) CCC(C)[C@H](NC(=O)CCN)c1cc(C(F)(F)F)ccc1N1CCN(C(=O)CCc2ccc(Cl)cc2Cl)CC1 (some centres not stated)
(2) CC(C)C[C@H](NC(=O)CN)c1cc(C(F)(F)F)ccc1N1CCN(C(=O)CCc2ccc(Cl)cc2Cl)CC1
Exercise: compare 1 and 2 ; which one has the greater Kp at 4 h? Kindly give the label for the entry you pick.
2

====

# Target Under Test: Melanocortin receptor 4 (Homo sapiens, UniProt P32245)
# Sequence (P32245 whole entry): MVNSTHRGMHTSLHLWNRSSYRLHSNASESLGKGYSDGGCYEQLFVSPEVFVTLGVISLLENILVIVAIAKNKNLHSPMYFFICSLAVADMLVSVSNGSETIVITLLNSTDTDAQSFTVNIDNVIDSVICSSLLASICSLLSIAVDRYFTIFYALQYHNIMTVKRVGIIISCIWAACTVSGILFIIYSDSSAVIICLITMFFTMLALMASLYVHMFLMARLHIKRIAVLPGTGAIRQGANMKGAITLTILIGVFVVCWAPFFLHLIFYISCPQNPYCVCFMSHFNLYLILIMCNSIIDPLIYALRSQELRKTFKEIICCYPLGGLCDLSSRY
pKi: −log10 of the molar value.
Assay Readout: pKi

CC(C)C[C@H](N)c1cc(C(F)(F)F)ccc1N1CCN(C(=O)CCc2c(Cl)cccc2Cl)CC1; 5.59
CCC(C)[C@H](NC(=O)CCN)c1cc(C(F)(F)F)ccc1N1CCN(C(=O)CCc2ccc(Cl)cc2Cl)CC1 (stereo partly drawn); 7.89
CCC(C)CN[C@H](c1cc(C(F)(F)F)ccc1N1CCN(C(=O)CCc2ccc(Cl)cc2Cl)CC1)C(C)CC (stereo partly drawn); 5.55
CC(C)C[C@H](N)c1cc(C(F)(F)F)ccc1N1CCN(C(=O)CCc2cn(C)c3ccccc23)CC1; 5.52
CCC(C)[C@H](NC(C)=O)c1cc(C(F)(F)F)ccc1N1CCN(C(=O)CCc2ccc(Cl)cc2Cl)CC1 (stereo partly drawn); 6.44

(I) CN[C@@H](CC(C)C)c1cc(C(F)(F)F)ccc1N1CCN(C(=O)CCc2ccc(Cl)cc2Cl)CC1
(II) COCCN[C@@H](CC(C)C)c1cc(C(F)(F)F)ccc1N1CCN(C(=O)CCc2ccc(Cl)cc2Cl)CC1
Exercise: compare I and II ; which one has the greater pKi? Kindly give the label for the entry you pick.
II
(II: 6.21, I: 5.72)

====

# Target Under Test: Melanocortin receptor 4 (Homo sapiens, UniProt P32245)
pKi: −log10 of the molar value.
Assay Readout: pKi

Below are worked cases with known answers.
CCN[C@@H](CC(C)C)c1cc(C(F)(F)F)ccc1N1CCN(C(=O)CCc2ccc(Cl)cc2Cl)CC1; 6.77
CC(C)C[C@H](N)c1cc(C(F)(F)F)ccc1N1CCN(C(=O)CCc2csc3ccccc23)CC1; 5.64
CCC(C)[C@H](NC[C@H]1CCCN1)c1cc(C(F)(F)F)ccc1N1CCN(C(=O)CCc2ccc(Cl)cc2Cl)CC1 (stereo partly specified); 6.96
CCC(C)[C@H](NCc1ccccc1)c1cc(C(F)(F)F)ccc1N1CCN(C(=O)CCc2ccc(Cl)cc2Cl)CC1 (stereo partly specified); 5.23
CC[C@H](C)C(N)c1cc(C(F)(F)F)ccc1N1CCN(C(=O)CCc2ccc(Cl)cc2Cl)CC1 (stereo partly specified); 7.12

(a) CC(C)C[C@H](N)c1cc(C(F)(F)F)ccc1N1CCN(C(=O)CCc2ccc3c(c2)OCO3)CC1
(b) CCC(C)[C@H](NCC1CCCO1)c1cc(C(F)(F)F)ccc1N1CCN(C(=O)CCc2ccc(Cl)cc2Cl)CC1 (stereo partly specified)
Exercise: compare a and b ; which one has the greater pKi? Kindly give the label for the entry you pick.
b
(b: 6.11, a: 5.82)

(1) CC(N)c1cc(C(F)(F)F)ccc1N1CCN(C(=O)CCc2ccc(Cl)cc2Cl)CC1 (stereo unspecified)
(2) CCCCC(N)c1cc(C(F)(F)F)ccc1N1CCN(C(=O)CCc2ccc(Cl)cc2Cl)CC1 (stereo unspecified)
// compare measured pKi between 1 and 2 ; output the lower one Kindly give the label for the entry you pick.
1

====

# Method Notes: Clearance in mouse at 5 mg/kg, iv
# Assay type: ADME, organism-based
# Design: dose 5 mg/kg, route intravenous
# Condition Set: in vivo
Assay Readout: clearance (mL/min/kg)

(A) CC(C)C[C@H](NC(=O)CN)c1cc(C(F)(F)F)ccc1N1CCN(C(=O)CCc2ccc(Cl)cc2Cl)CC1
(B) CCC(C)[C@H](NC(=O)CCN)c1cc(C(F)(F)F)ccc1N1CCN(C(=O)CCc2ccc(Cl)cc2Cl)CC1 (some centres not stated)
Exercise: compare A and B ; which one has the greater clearance? Kindly give the label for the entry you pick.
A

====

# Method Notes: Bioavailability in mouse at 10 mg/kg, po
# Format: ADME, organism-based
# Condition Set: in vivo
Assay Readout: bioavailability (%)

(A) CC(C)C[C@H](NC(=O)CN)c1cc(C(F)(F)F)ccc1N1CCN(C(=O)CCc2ccc(Cl)cc2Cl)CC1
(B) CCC(C)[C@H](NC(=O)CCN)c1cc(C(F)(F)F)ccc1N1CCN(C(=O)CCc2ccc(Cl)cc2Cl)CC1 (some centres not stated)
// compare measured bioavailability between A and B ; output the lower one Kindly give the label for the entry you pick.
A

====

pKi: −log10 of the molar value.
Let's go through some recorded pKi values for Melanocortin receptor 4 (Homo sapiens) together.
Assay Readout: pKi

Below are worked cases with known answers.
CCC(C)[C@H](NC[C@H](C)N)c1cc(C(F)(F)F)ccc1N1CCN(C(=O)CCc2ccc(Cl)cc2Cl)CC1 (stereo partly drawn); 7.05
CCOCC(N)c1cc(F)ccc1N1CCN(C(=O)CCc2ccc(Cl)cc2Cl)CC1 (stereo not drawn); 6.16
CCC(C)[C@H](NS(C)(=O)=O)c1cc(C(F)(F)F)ccc1N1CCN(C(=O)CCc2ccc(Cl)cc2Cl)CC1 (stereo partly drawn); 5.74
CCC(C)[C@H](NC(=O)OC)c1cc(C(F)(F)F)ccc1N1CCN(C(=O)CCc2ccc(Cl)cc2Cl)CC1 (stereo partly drawn); 5.62
CC(C)C[C@H](N)c1cc(F)ccc1N1CCN(C(=O)CCc2ccc(Cl)cc2Cl)CC1; 7.03
CCC(C)[C@H](NCCc1ccccc1)c1cc(C(F)(F)F)ccc1N1CCN(C(=O)CCc2ccc(Cl)cc2Cl)CC1 (stereo partly drawn); 5.59

(I) CCC(C)[C@H](N)c1cc(C(F)(F)F)ccc1N1CCN(C(=O)CCc2ccc(OC)c(OC)c2Cl)CC1 (stereo partly drawn)
(II) Cc1[nH]c2ccccc2c1CCC(=O)N1CCN(c2ccc(C(F)(F)F)cc2[C@@H](N)CC(C)C)CC1
Exercise: compare I and II ; which one has the greater pKi? Kindly give the label for the entry you pick.
II
(II: 5.80, I: 5.60)

====

# Method Notes: Lipophilicity, Log D of the compound
# Assay type: physicochemical
# Condition Set: octanol/water
Assay Readout: logD

CCC(C)[C@H](NC(=O)CCN)c1cc(C(F)(F)F)ccc1N1CCN(C(=O)CCc2ccc(Cl)cc2Cl)CC1 (some centres not stated); 4
CC(C)C[C@H](NC(=O)CN)c1cc(C(F)(F)F)ccc1N1CCN(C(=O)CCc2ccc(Cl)cc2Cl)CC1; 4.5

====

# Method Notes: Ratio of drug level in brain against plasma in mouse after 1 hr at 5 mg/kg, iv
# Format: ADME, organism-based
# Design: dose 5 mg/kg, route intravenous
# Condition Set: read-out: BPR
Assay Readout: Kp at 1 h

(P) CCC(C)[C@H](NC(=O)CCN)c1cc(C(F)(F)F)ccc1N1CCN(C(=O)CCc2ccc(Cl)cc2Cl)CC1 (some centres not stated)
(Q) CC(C)C[C@H](NC(=O)CN)c1cc(C(F)(F)F)ccc1N1CCN(C(=O)CCc2ccc(Cl)cc2Cl)CC1
// compare measured Kp at 1 h between P and Q ; output the lower one Kindly give the label for the entry you pick.
P

Where do the numbers come from? From ChEMBL document CHEMBL1149513.
